- Tested On: Mineralocorticoid receptor (Rattus norvegicus) (UniProt P22199)
- Experiment Notes: Ratio of [3H]aldosterone binding with 8*10e-8 M aldosterone to [3H]aldosterone binding with 8*10e-8 M competitor at Mineralocorticoid receptor
I'd appreciate it if you could supply Relative binding affinity values for the items below.
Quick one: just the number, no unit, thanks!

# get_value(readout='Relative binding affinity', item= CC12C=CC(=O)C=C1[C@H]1CC1C1C2CCC2(C)C1CCC21CCC(=O)O1 (stereo partly drawn) )
0.1

Given the entry C[C@]12C=CC(=O)C=C1CCC1C2CC[C@@]2(C)C1CC[C@@]21CCC(=O)O1 (stereo partly drawn) , report its measured Relative binding affinity.
0.15

Sample CC12C=CC(=O)C=C1C=CC1C2CCC2(C)C1CCC21CCC(=O)O1 (stereo not drawn) — what was its Relative binding affinity?
0.1

# input compound: CC12C(=CC(=O)C3CC31)[C@@H]1C[C@@H]1C1C2CCC2(C)C1CCC21CCC(=O)O1 (stereo partly drawn) ; wanted: its Relative binding affinity
0.14

// Relative binding affinity lookup, key: CC12C(=CC(=O)C3CC31)[C@H]1CC1C1C2CCC2(C)C1CCC21CCC(=O)O1 (stereo partly drawn)
0.1

State the recorded Relative binding affinity for this entry: `C[C@]12CCC(=O)C=C1CC[C@@H]1[C@@H]2CC[C@@]2(C)[C@H]1CC[C@@]21CCC(=O)O1`
0.22

# query: Relative binding affinity of entry `CC(=O)S[C@@H]1CC2=CC(=O)CC[C@]2(C)[C@H]2CC[C@@]3(C)[C@@H](CC[C@@]34CCC(=O)O4)[C@H]12`
0.24

Could you share which Relative binding affinity value was measured for CC12CCC(=O)C=C1[C@H]1C[C@H]1C1C2CCC2(C)C1CCC21CCC(=O)O1 (stereo partly drawn) ?
0.12

* * *

I'd be grateful if you could share measured Binding for these entries.
- Tested On: Mineralocorticoid receptor (Rattus norvegicus) (UniProt P22199)
- Sequence (whole entry): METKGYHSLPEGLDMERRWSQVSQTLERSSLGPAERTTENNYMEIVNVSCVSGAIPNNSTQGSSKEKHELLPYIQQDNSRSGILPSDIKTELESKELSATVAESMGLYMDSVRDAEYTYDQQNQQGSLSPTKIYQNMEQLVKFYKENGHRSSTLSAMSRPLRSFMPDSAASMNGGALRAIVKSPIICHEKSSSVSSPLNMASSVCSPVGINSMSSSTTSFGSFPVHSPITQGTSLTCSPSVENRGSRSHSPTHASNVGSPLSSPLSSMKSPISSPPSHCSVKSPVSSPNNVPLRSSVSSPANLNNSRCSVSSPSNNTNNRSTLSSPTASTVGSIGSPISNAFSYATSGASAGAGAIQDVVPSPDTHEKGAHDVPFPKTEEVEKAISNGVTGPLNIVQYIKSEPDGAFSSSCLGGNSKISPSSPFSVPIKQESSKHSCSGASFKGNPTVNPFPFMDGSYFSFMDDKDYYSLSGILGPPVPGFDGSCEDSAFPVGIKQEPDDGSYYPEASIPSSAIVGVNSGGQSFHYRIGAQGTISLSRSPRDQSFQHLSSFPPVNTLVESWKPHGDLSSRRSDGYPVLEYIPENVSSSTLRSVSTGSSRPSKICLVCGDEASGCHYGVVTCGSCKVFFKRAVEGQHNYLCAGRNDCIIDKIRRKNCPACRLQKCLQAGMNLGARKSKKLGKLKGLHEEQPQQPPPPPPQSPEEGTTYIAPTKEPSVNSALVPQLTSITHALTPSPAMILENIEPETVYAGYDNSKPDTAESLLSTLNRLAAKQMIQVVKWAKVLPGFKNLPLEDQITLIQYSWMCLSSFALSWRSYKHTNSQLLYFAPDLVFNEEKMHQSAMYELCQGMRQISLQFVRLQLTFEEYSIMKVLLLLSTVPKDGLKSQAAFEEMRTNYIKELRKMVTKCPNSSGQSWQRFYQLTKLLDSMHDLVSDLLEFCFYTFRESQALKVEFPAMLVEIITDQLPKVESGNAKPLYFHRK
- Experiment Notes: Displacement of [3H]aldosterone from mineralocorticoid receptor
Give a bare numeral; the unit % is implied.

Request - read-out Binding | tested on Mineralocorticoid receptor (Rattus norvegicus) (UniProt P22199) | compound CC12C=CC(=O)C=C1[C@H]1CC1C1C2CCC2(C)C1CCC21CCC(=O)O1 (some centres not stated)
77

Record `CC(=O)S[C@@H]1CC2=CC(=O)CC[C@]2(C)[C@H]2CC[C@@]3(C)[C@@H](CC[C@@]34CCC(=O)O4)[C@H]12` : what is its Binding with Mineralocorticoid receptor (Rattus norvegicus) (UniProt P22199)?
32.2

Fill in the recorded Binding for this compound, with Mineralocorticoid receptor (Rattus norvegicus) (UniProt P22199) as test system: CC12C=CC(=O)C=C1[C@H]1C[C@H]1C1C2CCC2(C)C1CCC21CCC(=O)O1 (some centres not stated)
53

Request body: readout Binding, system Mineralocorticoid receptor (Rattus norvegicus) (UniProt P22199), query C[C@]12C=CC(=O)C=C1CCC1C2CC[C@@]2(C)C1CC[C@@]21CCC(=O)O1 (some centres not stated) . Return the value.
53.5

Given the entry CC12C=CC(=O)C=C1C=CC1C2CCC2(C)C1CCC21CCC(=O)O1 (configuration not stated) , what Binding was observed with Mineralocorticoid receptor (Rattus norvegicus) (UniProt P22199)?
76.6

For the record `C[C@]12CCC(=O)C=C1C=C[C@@H]1[C@@H]2CC[C@@]2(C)[C@H]1CC[C@@]21CCC(=O)O1` , what value of Binding is listed for Mineralocorticoid receptor (Rattus norvegicus) (UniProt P22199)?
60

Hello, I am looking for reported Binding with Mineralocorticoid receptor (Rattus norvegicus) (UniProt P22199) for CC12CCC(=O)C=C1[C@H]1C[C@H]1C1C2CCC2(C)C1CCC21CCC(=O)O1 (some centres not stated) . Could you help?
66

Field: Binding (Mineralocorticoid receptor (Rattus norvegicus) (UniProt P22199)). Entry: CC12C(=CC(=O)C3CC31)[C@H]1CC1C1C2CCC2(C)C1CCC21CCC(=O)O1 (some centres not stated)
77.6

Provide value of Binding for this record tested with Mineralocorticoid receptor (Rattus norvegicus) (UniProt P22199): `C[C@]12CCC(=O)C=C1CC[C@@H]1[C@@H]2CC[C@@]2(C)[C@H]1CC[C@@]21CCC(=O)O1`
36

Requested read-out Binding, target or system Mineralocorticoid receptor (Rattus norvegicus) (UniProt P22199), entry CC12CCC(=O)C=C1[C@@H]1C[C@@H]1C1C2CCC2(C)C1CCC21CCC(=O)O1 (some centres not stated)
31.7

Query Binding on Mineralocorticoid receptor (Rattus norvegicus) (UniProt P22199) for CC12C(=CC(=O)C3CC31)[C@@H]1C[C@@H]1C1C2CCC2(C)C1CCC21CCC(=O)O1 (some centres not stated)
55

Query the reported Binding for Mineralocorticoid receptor (Rattus norvegicus) (UniProt P22199); item: `C[C@]12CCC(=O)C=C1CC[C@@H]1[C@@H]2[C@@H](O)C[C@]2(C=O)[C@@H](C(=O)CO)CC[C@@H]12`
7.8

Source: ChEMBL document CHEMBL1121702
